Each record here notes measured Papp at 3 h.
assay: Apparent permeability in human Caco-2 cells incubated for 180 mins by LC-MS/MS method; assay type: ADME, cell-based
Positions of bridges follow the written chain, without caps; N, C: chain ends. Non-standard residues stand in square brackets, D forms with d. Residues, ends and D or L forms follow the SMILES beside them. *: point of attachment. hPhe(3-Cl-4-CF3) = N[C@@H](CCc1ccc(C(F)(F)F)c(Cl)c1)C(=O)O; NMeGly(cPent) = CN[C@H](C(=O)O)C1CCCC1; NMeAla(cPr) = CN[C@@H](CC1CC1)C(=O)O; NMeGly(cBu) = CN[C@H](C(=O)O)C1CCC1; NMeCha = CN[C@@H](CC1CCCCC1)C(=O)O; NMeChg = CN[C@H](C(=O)O)C1CCCCC1; NMeD = CN[C@@H](CC(=O)O)C(=O)O; NMeL = CN[C@@H](CC(C)C)C(=O)O; NMeV = CN[C@H](C(=O)O)C(C)C; NMeA = CN[C@@H](C)C(=O)O; Piperidide = C1CCN(*)CC1; Ac5c = NC1(C(=O)O)CCCC1; Aze = O=C(O)[C@@H]1CCN1; Sar = CNCC(=O)O
# output: bare number, implied unit ×10⁻⁶ cm/s

Answered examples (4):
# COMPOUND, REPORTED PROPERTY, VALUE UNIT, QUANTITATIVE RESULT
data = [
    ("CC[C@H](C)[C@@H]1NC(=O)[C@H](CC2CC2)N(C)C(=O)C[C@@H](C(=O)N2CCCCC2)N(C)C(=O)[C@H](C(C)C)N(C)C(=O)C2(CCCC2)NC(=O)[C@@H]2CCCN2C(=O)[C@H](CCc2ccc(C(F)(F)F)c(Cl)c2)NC(=O)CN(C)C(=O)[C@H](CC2CCCCC2)N(C)C(=O)CN(C)C(=O)CN(C)C1=O ([NMeAla(cPr)]I[Sar][Sar][NMeCha][Sar][hPhe(3-Cl-4-CF3)]P[Ac5c][NMeV][NMeD]-Piperidide; lactam N-11)", "Papp at 3 h", "×10⁻⁶ cm/s", 0.34),
    ("CC[C@H](C)[C@@H]1NC(=O)[C@H](C2CCCCC2)N(C)C(=O)C[C@@H](C(=O)N2CCCCC2)N(C)C(=O)[C@H](C(C)C)N(C)C(=O)C2(CCCC2)NC(=O)[C@@H]2CCCN2C(=O)[C@H](CCc2ccc(C(F)(F)F)c(Cl)c2)NC(=O)CN(C)C(=O)[C@H](CC2CCCCC2)N(C)C(=O)CN(C)C(=O)CN(C)C1=O ([NMeChg]I[Sar][Sar][NMeCha][Sar][hPhe(3-Cl-4-CF3)]P[Ac5c][NMeV][NMeD]-Piperidide; lactam N-11)", "Papp at 3 h", "×10⁻⁶ cm/s", 0.37),
    ("CC[C@H](C)[C@@H]1NC(=O)[C@H](CC2CCCCC2)N(C)C(=O)C[C@@H](C(=O)N2CCCCC2)N(C)C(=O)[C@H](C(C)C)N(C)C(=O)C2(CCCC2)NC(=O)[C@@H]2CCCN2C(=O)[C@H](CCc2ccc(C(F)(F)F)c(Cl)c2)NC(=O)CN(C)C(=O)[C@H](CC2CCCCC2)N(C)C(=O)CN(C)C(=O)CN(C)C1=O ([NMeCha]I[Sar][Sar][NMeCha][Sar][hPhe(3-Cl-4-CF3)]P[Ac5c][NMeV][NMeD]-Piperidide; lactam N-11)", "Papp at 3 h", "×10⁻⁶ cm/s", 0.33),
    ("CC[C@H](C)[C@@H]1NC(=O)[C@H](C2CCCC2)N(C)C(=O)C[C@@H](C(=O)N2CCCCC2)N(C)C(=O)[C@H](C(C)C)N(C)C(=O)C2(CCCC2)NC(=O)[C@@H]2CCCN2C(=O)[C@H](CCc2ccc(C(F)(F)F)c(Cl)c2)NC(=O)CN(C)C(=O)[C@H](CC2CCCCC2)N(C)C(=O)CN(C)C(=O)CN(C)C1=O ([NMeGly(cPent)]I[Sar][Sar][NMeCha][Sar][hPhe(3-Cl-4-CF3)]P[Ac5c][NMeV][NMeD]-Piperidide; lactam N-11)", "Papp at 3 h", "×10⁻⁶ cm/s", 0.75),
]

We next turn to a different compound, shown below.
Challenge: Requested field: Papp at 3 h. Item: CC[C@H](C)[C@@H]1NC(=O)[C@H](CC(C)C)N(C)C(=O)C[C@@H](C(=O)N2CCCCC2)N(C)C(=O)[C@H](C2CCC2)N(C)C(=O)C2(CCCC2)NC(=O)[C@@H]2CCCN2C(=O)[C@H](CCc2ccc(C(F)(F)F)c(Cl)c2)NC(=O)CN(C)C(=O)[C@H](CC2CCCCC2)N(C)C(=O)[C@@H]2CCN2C(=O)[C@H](C)N(C)C1=O ([NMeL]I[NMeA][Aze][NMeCha][Sar][hPhe(3-Cl-4-CF3)]P[Ac5c][NMeGly(cBu)][NMeD]-Piperidide; lactam N-11)
Response given: 0.91
